List of inhibition at 10 µM values.
Test system: HCV Replicon IA
Test: HCV replicon assay in Huh-7 cells, genotype 1a
Assay type: cell-based
Details: Hepatitis C virus, 72 h, Huh-7 HCV replicon cells, 3 days
# unit: % | format: bare number

compound	quantitative readout
O=C(Nc1ccccc1)c1cc(O)c2cc(-c3cn[nH]c3)cc(C(F)(F)F)c2n1	98.5
O=C(NCc1ccccc1)c1cc(O)c2cc(-c3cn[nH]c3)cc(C(F)(F)F)c2n1	99.2
Nc1cc(O)c2cc(-c3ccccc3)cc(C(F)(F)F)c2n1	92.5

Field inhibition at 10 µM (entry Nc1cc(C(=O)NCc2cccs2)nc2c(C(F)(F)F)cc(-c3ccccc3)cc12 ) reads 99.9

Input O=C(NCc1cccs1)c1nc(N2CCCC2)c2cc(-c3ccccc3)cc(C(F)(F)F)c2n1 . Output inhibition at 10 µM: 91.4

Entry under test: O=C(NCc1ccccn1)c1cc(O)c2cc(-c3cn[nH]c3)cc(C(F)(F)F)c2n1 . Its inhibition at 10 µM was 98.2

For this compound ( O=C(c1cc(O)c2cc(-c3ccoc3)cc(C(F)(F)F)c2n1)N1CCC(c2ccc(F)cc2)CC1 ), measured inhibition at 10 µM is 95.3

Entry C[C@@H](NC(=O)c1cc(O)c2cc(-c3cn[nH]c3)cc(C(F)(F)F)c2n1)c1ccccc1 (single isomer, unassigned) , inhibition at 10 µM reported as 55.3

###

System: HCV Replicon IB
Assay: HCV replicon assay in Huh-7 cells, genotype 1b (Rluc luciferase readout)
Format: cell-based, hepatitis C virus
Details: Hepatitis C virus, 72 h; 10 uM; 1b-Rluc replicon, Huh-7 cells, 3 days; read-out: Inhibition @ 10 uM in 1b-Rluc
inhibition at 10 µM values by entry
Write it as a number; the unit % goes unstated.

Solved cases below.
compound	unit spec	inhibition at 10 µM
Cc1cc(C(=O)NCC2CCCCN2)nc2c(C(F)(F)F)cc(C3CC3)cc12 (centres unmarked)	%	96.5
Cc1cc(C(=O)NCc2cnccn2)nc2c(C(F)(F)F)cc(C3CC3)cc12	%	100
O=C(NCc1ccccn1)c1cc(Cl)c2cc(C3CC3)cc(OC(F)(F)F)c2n1	%	100
CCOCCOCCOCCCNc1nnc(-c2cc(C)c3cc(C4CC4)cc(C(F)(F)F)c3n2)s1	%	96
Cc1cc(-c2nnc(N)s2)nc2c(C(F)(F)F)cc(C3CC3)cc12	%	96.6

Given item Cc1cc(C(=O)NCc2ccccn2)nc2c(C(F)(F)F)cc(CC(C)C)cc12 , the value recorded as its inhibition at 10 µM is 99.1

In plain terms, Cc1cc(C(=O)NCCCN2CC(O)C2)nc2c(C(F)(F)F)cc(C3CC3)cc12 has a documented inhibition at 10 µM of 90.1

Record Cc1cc(C(=O)NCc2ncccn2)nc2c(C(F)(F)F)cc(C3CC3)cc12 , field inhibition at 10 µM: 100

// Cc1cc(-c2nnc(NCC3COCCN3)o2)nc2c(C(F)(F)F)cc(C3CC3)cc12 (centres unmarked) : inhibition at 10 µM value = 92.7

// Cc1cc(-c2nnc(NCCS(=O)(=O)N(C)C)o2)nc2c(C(F)(F)F)cc(C3CC3)cc12 : inhibition at 10 µM value = 84.7

###

Catalogue of compounds with associated EC50
Tested on: HCV Replicon IB
Test: HCV replicon assay in Huh-7 cells, genotype 1b (Rluc luciferase readout)
Type: cell-based, hepatitis C virus
Conditions: Hepatitis C virus, Huh-7, 72 h, HCV1B replicon, Huh-7 cells, 3 days; read-out: EC50_HCV1B_
Please respond with the number in nM and leave the unit unwritten.

Example compounds with recorded EC50:
compound	EC50 / nM
Cc1cc(-c2nnc(NC3CS(=O)(=O)C3)o2)nc2c(C(C)(C)C)cc(OCC(F)(F)F)cc12	62.5
Cc1cc(-c2nnc(NCC3CC(F)(F)CN3)s2)nc2c(C(C)(C)C)cc(C3CC3)cc12 (centres unmarked)	2930
Nc1cc(C(=O)NC[C@H]2CC(F)(F)CCN2)nc2c(C(F)(F)F)cc(OC(F)F)cc12	83.9
CCCCNc1nnc(-c2cc(C)c3cc(C4CC4)cc(C(C)(C)C)c3n2)s1	6.23
Cc1cc(C(=O)NCc2ncccn2)nc2c(OC(F)(F)F)cc(C3CC3)cc12	10.2
CCCCNc1nnc(-c2cc(Cl)c3cc(C4CC4)cc(C(C)(C)C)c3n2)s1	48.9
CO[C@@H]1CN[C@H](CNC(=O)c2nc(N)c3cc(-c4ccccc4)cc(C(F)(F)F)c3n2)C1	589
Cc1cc(-c2nnc(NC3CCNC3)o2)nc2c(C(C)(C)C)cc(C3CC3)cc12 (centres unmarked)	888
Cc1cc(C(=O)NC[C@@H]2CC3(CN2)OCCO3)nc2c(C(F)(F)F)cc(OCC(F)(F)F)cc12	32.3
Cc1cc(-c2nnc(Nc3cn[nH]c3)s2)nc2c(C(F)(F)F)cc(C3CC3)cc12	10.2

Per the records, this compound ( CC(C)(C)c1cc(C2CC2)cc2c(N)cc(-c3nnc(NCC4OCCO4)o3)nc12 ) has EC50 equal to 2.11

For reference, reported EC50 for Cc1cc(-c2nnc(N[C@H]3CC[C@@H](O)C3)o2)nc2c(C(C)(C)C)cc(C3CC3)cc12 stands at 1.74

// sample CO[C@H]1CN[C@@H](CNC(=O)c2cc(N)c3cc(C4CC4)cc(C(C)(C)C)c3n2)C1 , its EC50 was 16.5

Short answer for CC(C)(C)c1cc(C2CC2)cc2c(N)cc(-c3nnc(NCCCCO)o3)nc12 : EC50 was 3.24

Looking up Cc1cc(-c2nnc(N[C@H]3C[C@](O)(C(F)F)C3)o2)nc2c(C(C)(C)C)cc(OCC(F)(F)F)cc12 , I found its EC50 recorded as 0.36

###

Test system: HCV Replicon IB
Assay: HCV replicon assay in Huh-7 cells, genotype 1b (Rluc luciferase readout)
Assay type: cell-based, hepatitis C virus
Settings: Hepatitis C virus, 72 h; 10 uM; 1b-Rluc replicon, Huh-7 cells, 3 days; read-out: Inhibition @ 10 uM in 1b-Rluc
Entries and their measured inhibition at 10 µM follow.
A number alone suffices; assume %.

Here's what some known entries look like.
compound	result type	unit spec	quantitative readout
O=C(NCC1COCCN1)c1cc(O)c2cc(C3CC3)cc(C(F)(F)F)c2n1 (stereo not drawn)	inhibition at 10 µM	%	77
O=C(NC[C@@H]1CC(F)(F)CCN1)c1cc(Cl)c2cc(OC(F)F)cc(C(F)(F)F)c2n1 (single isomer, unassigned)	inhibition at 10 µM	%	98.3
CCCC(=O)Nc1nnc(-c2cc(C)c3cc(C4CC4)cc(C(F)(F)F)c3n2)o1	inhibition at 10 µM	%	99.7
Cc1cc(C(=O)NCC2(C)OCCO2)nc2c(C(F)(F)F)cc(C3CC3)cc12	inhibition at 10 µM	%	98.1
Cc1cc(C(=O)NCc2ccc(C#N)cn2)nc2c(C(F)(F)F)cc(C3CC3)cc12	inhibition at 10 µM	%	99.7

inhibition at 10 µM for Cc1cc(-c2nnc(NCC(=O)N(C)C)o2)nc2c(C(F)(F)F)cc(C3CC3)cc12 is 99.9

Reported inhibition at 10 µM ( CCc1cc(C(F)(F)F)c2nc(C(=O)NCc3ccccn3)cc(C)c2c1 ) = 98.9

Query Cc1cc(-c2nnc(NCc3ncc[nH]3)o2)nc2c(C(F)(F)F)cc(C3CC3)cc12 yields inhibition at 10 µM of 99.7

Recorded inhibition at 10 µM (compound Cc1cc(C(=O)NCCCO)nc2c(C(F)(F)F)cc(C3CC3)cc12 ): 99.2

get_value(item= CCOCCOCCOCCCNc1nnc(-c2cc(C)c3cc(C4CC4)cc(C(F)(F)F)c3n2)o1 , readout=inhibition at 10 µM) returns 80

Measured inhibition at 10 µM, C#Cc1cc(OC(F)(F)F)cc2c(Cl)cc(C(=O)NCc3ccccn3)nc12 : 9.91

The compound listed as Cc1cc(C(=O)NCC#N)nc2c(C(F)(F)F)cc(-c3ccccc3)cc12 shows inhibition at 10 µM equal to 82.8

###

Tested on: HCV Replicon IB
Assay: HCV replicon assay in Huh-7 cells, genotype 1b (Rluc luciferase readout)
Assay type: cell-based, hepatitis C virus
Details: Hepatitis C virus, 72 h; 10 uM; 1b-Rluc replicon, Huh-7 cells, 3 days; read-out: Inhibition @ 10 uM in 1b-Rluc
Recorded measurements of inhibition at 10 µM, one per entry
Your answer is read as %, so omit the unit and give the number.

Recorded results for 5 molecules are shown here.
molecule	inhibition at 10 µM, %
Cc1cc(-c2nnc(NCCCS(N)(=O)=O)o2)nc2c(C(F)(F)F)cc(C3CC3)cc12	97.7
Cc1cc(C(=O)NCc2ccccn2)nc2c(C(F)(F)F)cc(C(C)C)cc12	98.8
Cc1cc(-c2nnc(NCCCOP(=O)(O)O)s2)nc2c(C(F)(F)F)cc(C3CC3)cc12	99.9
Cc1cc(C(=O)NCc2ccccn2)nc2c(C(F)(F)F)cc(C3=CCCC3)cc12	99.4
Cc1cc(-c2nnc(NCCCO)o2)nc2c(C(F)(F)F)cc(C3CC3)cc12	100

For Cc1cc(C(=O)NCCO)nc2c(C(F)(F)F)cc(-c3ccccc3)cc12 the molecule record lists inhibition at 10 µM as 93.8

So for Cc1cc(C(=O)NCC2(O)CC2)nc2c(C(F)(F)F)cc(-c3ccccc3)cc12 , the logged inhibition at 10 µM turned out to be 98.3

Hey, just so you know, these numbers are from patent US20120053148A1.
